Method Notes: Metabolic stability in human liver S9 fraction assessed as compound remaining after 1 hr
Assay type: ADME, subcellular
Settings: read-out: Stability
Reported Metric: remaining at 1 h (%)

Please review the entries below; each comes with its answer.
COc1ccccc1Oc1ccc2c(c1)C(=O)N([C@@H](C(=O)NC1CCN(Cc3ccccc3)CC1)C(C)C)CC(=O)N2 | 26
CC(C)[C@H](C(=O)N1CCC(NC(C)(C)c2ccccc2)CC1)N1CC(=O)Nc2ccc(Oc3ccccc3)cc2C1=O | 19
CC(C)[C@H](C(=O)NC1CCN(Cc2ccccc2)CC1)N1CC(=O)Nc2ccc(Oc3ccccc3)cc2C1=O | 30
CC(C)[C@H](C(=O)N1CCC(NCCC2CCCCC2)CC1)N1CC(=O)Nc2ccc(Oc3ccccc3)cc2C1=O | 76

1: CC(C)[C@H](C(=O)NC1CCC(Cc2ccccc2)CC1)N1CC(=O)Nc2ccc(Oc3ccccc3)cc2C1=O (stereo partly drawn)
2: CC(C)[C@H](C(=O)N1CCC(NCC2CC2)CC1)N1CC(=O)Nc2ccc(Oc3ccccc3)cc2C1=O
3: Cc1cc(F)ccc1Oc1ccc2c(c1)C(=O)N([C@@H](C(=O)NC1CCN(Cc3ccccc3)CC1)C(C)C)CC(=O)N2
Enquiry: Rank the 3 compounds: largest remaining at 1 h first, smallest last. List the labels in the requested order.
Return: 2, 1, 3
(2: 86%, 1: 23%, 3: 5%)

====

Tested On: Growth hormone secretagogue receptor type 1 (Homo sapiens, UniProt Q92847)
Sequence (Q92847 whole entry): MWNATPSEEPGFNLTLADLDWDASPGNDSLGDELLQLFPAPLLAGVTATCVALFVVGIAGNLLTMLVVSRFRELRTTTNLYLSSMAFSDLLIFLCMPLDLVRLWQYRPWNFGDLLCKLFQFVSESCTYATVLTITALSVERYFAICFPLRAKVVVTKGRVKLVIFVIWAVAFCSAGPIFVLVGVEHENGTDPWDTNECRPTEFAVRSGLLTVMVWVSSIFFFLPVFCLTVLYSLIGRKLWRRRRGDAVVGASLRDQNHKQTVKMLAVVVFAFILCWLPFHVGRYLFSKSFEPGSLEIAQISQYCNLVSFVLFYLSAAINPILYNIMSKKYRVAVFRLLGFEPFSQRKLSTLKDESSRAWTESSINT
Method Notes: Antagonist activity at human GHSR1a receptor assessed as intracellular Ca2+ concentration by aequorin luminescent assay
pIC50: −log10 of the molar value.
Reported Metric: pIC50

COc1cccc(Oc2ccc3c(c2)C(=O)N([C@@H](C(=O)NC2CCN(Cc4ccccc4)CC2)C(C)C)CC(=O)N3)c1 | 6.84

a: CC(C)[C@@H](C(=O)NC1CCN(Cc2ccccc2)CC1)N1CC(=O)Nc2ccc(Oc3ccccc3)cc2C1=O
b: Cc1cc(F)ccc1Oc1ccc2c(c1)C(=O)N([C@@H](C(=O)NC1CCN(Cc3ccccc3)CC1)C(C)C)CC(=O)N2
Enquiry: Rank a against b by their pIC50 values and give the higher one. When you have decided, please share the label of that item.
Return: b

====

Method Notes: Oral bioavailability in Sprague-Dawley rat at 2 mg/kg
Type: ADME, organism-based
Settings: in vivo
Reported Metric: bioavailability (%)

1: CC(C)[C@H](C[C@H]1CC[C@@H](NCC2CC2)CC1)N1CCCc2ccc(Oc3ccc(F)cc3F)cc2C1=O
2: CC(C)[C@H](C(=O)NC1CCN(Cc2ccccc2)CC1)N1CC(=O)Nc2ccc(Oc3ccccc3)cc2C1=O
Enquiry: Rank 1 against 2 by their bioavailability values and give the higher one. When you have decided, please share the label of that item.
Return: 1

====

Method Notes: Clearance in Sprague-Dawley rat at 2 mg/kg, po
Format: ADME, organism-based
Design: dose 2 mg/kg, route oral
Settings: in vivo
Reported Metric: CL/F (mL/min/kg)

1: CC(C)[C@H](C[C@H]1CC[C@@H](NCC2CC2)CC1)N1CCCc2ccc(Oc3ccc(F)cc3F)cc2C1=O
2: CC(C)[C@H](C(=O)NC1CCN(Cc2ccccc2)CC1)N1CC(=O)Nc2ccc(Oc3ccccc3)cc2C1=O
Enquiry: From the items above, decide which of 1 and 2 has the lower CL/F reading. When you have decided, please share the label of that item.
Return: 1
(1: 10 mL/min/kg, 2: 143 mL/min/kg)

====

Tested On: Growth hormone secretagogue receptor type 1 (Homo sapiens)
Method Notes: Antagonist activity at human GHSR1a receptor assessed as intracellular Ca2+ concentration by aequorin luminescent assay
Reported Metric: IC50 (nM)

CC(C)[C@H](C(=O)N1CCC(NCC2CC2)CC1)N1CC(=O)Nc2ccc(Oc3ccccc3)cc2C1=O | 50
CC(C)[C@H](C(=O)NC1CCN(Cc2ccccc2)CC1)N1CC(=O)Nc2ccc(Oc3ccc(F)cc3)cc2C1=O | 11

A: CC(C)[C@H](C(=O)N1CCC(NC(C)(C)c2ccccc2)CC1)N1CC(=O)Nc2ccc(Oc3ccccc3)cc2C1=O
B: CC(C)[C@H](C(=O)NC1CCN(Cc2ccccc2)CC1)N1CC(=O)Nc2ccc(Oc3ccc(Cl)cc3)cc2C1=O
Enquiry: Rank A against B by their IC50 values and give the higher one. When you have decided, please share the label of that item.
Return: B
(B: 28 nM, A: 16.5 nM)

A: COc1ccc(Oc2ccc3c(c2)C(=O)N([C@@H](C(=O)NC2CCN(Cc4ccccc4)CC2)C(C)C)CC(=O)N3)cc1
B: CC(C)[C@H](C[C@H]1CC[C@@H](NCc2ccccc2)CC1)N1CC(=O)Nc2ccc(Oc3ccccc3)cc2C1=O
Enquiry: From the items above, decide which of A and B has the lower IC50 reading. When you have decided, please share the label of that item.
Return: B
(B: 6 nM, A: 79 nM)

1: CC(C)[C@H](C[C@H]1CC[C@@H](NCC2CC2)CC1)N1CC(=O)Nc2ccc(Oc3ccc(F)cc3F)cc2C1=O
2: CC(C)[C@H](C(=O)N1CCC(NCCC2CCCCC2)CC1)N1CC(=O)Nc2ccc(Oc3ccccc3)cc2C1=O
Enquiry: Rank 1 against 2 by their IC50 values and give the higher one. When you have decided, please share the label of that item.
Return: 1
(1: 20 nM, 2: 4.1 nM)

====

Method Notes: Metabolic stability in rat liver S9 fraction assessed as compound remaining after 1 hr
Assay type: ADME, subcellular
Settings: read-out: Stability
Reported Metric: remaining at 1 h (%)

CC(C)[C@H](C(=O)N1CCC(NCc2ccccc2)CC1)N1CC(=O)Nc2ccc(Oc3ccc(F)cc3F)cc2C1=O | 65
CC(C)[C@H](C(=O)N1CCC(NCc2ccccc2)CC1)N1CC(=O)Nc2ccc(Oc3ccccc3)cc2C1=O | 72
CC(C)[C@H](C(=O)NC1CCN(Cc2ccccc2)CC1)N1CC(=O)Nc2ccc(Oc3ccccc3)cc2C1=O | 19
CC(C)[C@H](C(=O)N1CCC(NCC2CC2)CC1)N1CC(=O)Nc2ccc(Oc3ccccc3)cc2C1=O | 71
COc1ccccc1Oc1ccc2c(c1)C(=O)N([C@@H](C(=O)NC1CCN(Cc3ccccc3)CC1)C(C)C)CC(=O)N2 | 19
COc1cccc(Oc2ccc3c(c2)C(=O)N([C@@H](C(=O)NC2CCN(Cc4ccccc4)CC2)C(C)C)CC(=O)N3)c1 | 10
CC(C)[C@H](C[C@H]1CC[C@@H](NCC2CC2)CC1)N1CC(=O)Nc2ccc(Oc3ccc(F)cc3F)cc2C1=O | 27
CC(C)[C@H](C[C@H]1CC[C@@H](NCC2CC2)CC1)N1CCCc2ccc(Oc3ccc(F)cc3F)cc2C1=O | 97

P: CC(C)[C@H](C(=O)N1CCC(N[C@H](C)C2CCCCC2)CC1)N1CC(=O)Nc2ccc(Oc3ccccc3)cc2C1=O
Q: Cc1ccccc1Oc1ccc2c(c1)C(=O)N([C@@H](C(=O)NC1CCN(Cc3ccccc3)CC1)C(C)C)CC(=O)N2
Enquiry: Rank P against Q by their remaining at 1 h values and give the higher one. When you have decided, please share the label of that item.
Return: P

I: CC(C)[C@H](C(=O)N1CCC(NC(C)(C)c2ccccc2)CC1)N1CC(=O)Nc2ccc(Oc3ccccc3)cc2C1=O
II: Cc1cc(F)ccc1Oc1ccc2c(c1)C(=O)N([C@@H](C(=O)NC1CCN(Cc3ccccc3)CC1)C(C)C)CC(=O)N2
III: CC(C)[C@H](C(=O)NC1CCC(Cc2ccccc2)CC1)N1CC(=O)Nc2ccc(Oc3ccccc3)cc2C1=O (some centres undefined)
Enquiry: Arrange these 3 molecules in increasing order of remaining at 1 h. List the labels in the requested order.
Return: II, I, III
(II: 3%, I: 48%, III: 95%)

====

Method Notes: AUC in Sprague-Dawley rat at 2 mg/kg, po
Format: ADME, organism-based
Set-up: dose 2 mg/kg, route oral
Settings: plasma
Reported Metric: AUC (ng·h/mL)

A: CC(C)[C@H](C(=O)NC1CCN(Cc2ccccc2)CC1)N1CC(=O)Nc2ccc(Oc3ccccc3)cc2C1=O
B: CC(C)[C@H](C[C@H]1CC[C@@H](NCC2CC2)CC1)N1CCCc2ccc(Oc3ccc(F)cc3F)cc2C1=O
Enquiry: From the items above, decide which of A and B has the lower AUC reading. When you have decided, please share the label of that item.
Return: A
(A: 132 ng·h/mL, B: 618 ng·h/mL)

====

Tested On: Growth hormone secretagogue receptor type 1 (Homo sapiens, UniProt Q92847)
Method Notes: Antagonist activity at human GHSR1a receptor assessed as intracellular Ca2+ concentration by aequorin luminescent assay
Reported Metric: IC50 (nM)

Please review the entries below; each comes with its answer.
Cc1ccc(Oc2ccc3c(c2)C(=O)N([C@@H](C(=O)NC2CCN(Cc4ccccc4)CC2)C(C)C)CC(=O)N3)cc1 | 7
Cc1cccc(C)c1Oc1ccc2c(c1)C(=O)N([C@@H](C(=O)NC1CCN(Cc3ccccc3)CC1)C(C)C)CC(=O)N2 | 1
CC(C)[C@H](C(=O)NC1CCN(Cc2ccccc2)CC1)N1CC(=O)Nc2ccc(Oc3ccccc3)cc2C1=O | 8

P: CC(C)[C@H](C(=O)N1CCC(NCc2ccccc2)CC1)N1CC(=O)Nc2ccc(Oc3ccccc3)cc2C1=O
Q: CC(C)[C@H](C(=O)NC1CCN(Cc2ccccc2)CC1)N1CC(=O)Nc2ccc(Oc3cccc(Cl)c3)cc2C1=O
R: CC(C)[C@H](C(=O)N1CCC(NCCC2CCOCC2)CC1)N1CC(=O)Nc2ccc(Oc3ccccc3)cc2C1=O
S: CC(C)[C@H](C(=O)N1CCC(NCc2ccccc2)CC1)N1CC(=O)Nc2ccc(Oc3ccc(F)cc3F)cc2C1=O
T: O=C1CN([C@@H](C(=O)NC2CCN(Cc3ccccc3)CC2)C2CC2)C(=O)c2cc(Oc3ccccc3)ccc2N1
Enquiry: Rank the 5 molecules: largest IC50 first, smallest last. List the labels in the requested order.
Return: R, Q, T, P, S
(R: 313 nM, Q: 171 nM, T: 12 nM, P: 8 nM, S: 0.3 nM)
